B1: CCDC6 (parent)
chain: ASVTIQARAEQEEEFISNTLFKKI

variants of: B1; test: protein stability index of a GFP-peptide fusion (GPS, HEK-293T) (PSI 1-6); higher = more stable; conditions: c terminus: a fixed tail appended;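 further: lentivirally expressed fusions sorted by FACS into six bins by GFP to DsRed ratio, PSI derived from sequencing read proportions per bin multiplied by bin number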
# protein stability index >= 3 gives Satisfied, anything below gives Not satisfied

The following variants have reported results that may help.
Input sequence	Label value
ASVTIVARAEQEEEFISNTLFKKI	Not satisfied
ASVTIQARCEQEEEFISNTLFKKI	Satisfied
ASVTIQARAEQHEEFISNTLFKKI	Not satisfied
ASWTIQARAEQEEEFISNTLFKKI	Satisfied
ASVTIQARAIQEEEFISNTLFKKI	Not satisfied
ASVTIQARAEQDEEFISNTLFKKI	Satisfied
ASVTIQARAEQEEEFISNTLVKKI	Satisfied
ASVTIQARAEQEEKFISNTLFKKI	Satisfied

Input line: Confirm if protein stability index reported for the variant ASVTIQARAEQEEEFSSNTLFKKI is 3 or above.
Output line: Satisfied

Input line: Check this variant for protein stability index at or above 3: AHVTIQARAEQEEEFISNTLFKKI
Output line: Satisfied

Input line: Item ASVTIQARAEQEEEFISNTLFKII with protein stability index of 3 or above?
Output line: Not satisfied

Input line: // inclusive: protein stability index at least 3? input: ASVTIQARAEQEEEFISNELFKKI
Output line: Satisfied

Input line: Evaluate ASVTIQHRAEQEEEFISNTLFKKI : protein stability index at minimum 3?
Output line: Satisfied

Input line: Reported protein stability index reaches at least 3 for ASVTIQARAEQEEEFIINTLFKKI ?
Output line: Not satisfied
